# study-target: T1, Coagulation Factor Va (FVa), modified (Homo sapiens, UniProt P12259;P12259 P12259:29-737,P12259:1574-2224)
# T1 chain 1: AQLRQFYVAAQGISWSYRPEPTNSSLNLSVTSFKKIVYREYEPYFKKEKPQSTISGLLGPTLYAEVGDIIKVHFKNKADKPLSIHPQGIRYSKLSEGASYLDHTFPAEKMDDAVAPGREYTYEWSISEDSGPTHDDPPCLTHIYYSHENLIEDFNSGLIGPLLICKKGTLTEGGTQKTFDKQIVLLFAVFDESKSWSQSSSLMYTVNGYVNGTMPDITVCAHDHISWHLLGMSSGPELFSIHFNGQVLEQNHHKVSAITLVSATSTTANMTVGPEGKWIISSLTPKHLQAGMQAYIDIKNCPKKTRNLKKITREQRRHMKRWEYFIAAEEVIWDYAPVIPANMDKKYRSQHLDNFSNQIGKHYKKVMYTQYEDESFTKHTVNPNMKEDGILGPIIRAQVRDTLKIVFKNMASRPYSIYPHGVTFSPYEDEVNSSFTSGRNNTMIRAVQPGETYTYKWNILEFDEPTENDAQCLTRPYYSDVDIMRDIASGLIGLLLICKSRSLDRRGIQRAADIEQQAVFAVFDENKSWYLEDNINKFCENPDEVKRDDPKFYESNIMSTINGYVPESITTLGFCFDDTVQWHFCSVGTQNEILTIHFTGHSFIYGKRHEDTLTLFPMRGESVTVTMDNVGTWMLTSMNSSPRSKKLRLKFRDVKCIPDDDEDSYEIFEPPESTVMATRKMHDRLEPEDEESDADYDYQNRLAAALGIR
# T1 chain 2: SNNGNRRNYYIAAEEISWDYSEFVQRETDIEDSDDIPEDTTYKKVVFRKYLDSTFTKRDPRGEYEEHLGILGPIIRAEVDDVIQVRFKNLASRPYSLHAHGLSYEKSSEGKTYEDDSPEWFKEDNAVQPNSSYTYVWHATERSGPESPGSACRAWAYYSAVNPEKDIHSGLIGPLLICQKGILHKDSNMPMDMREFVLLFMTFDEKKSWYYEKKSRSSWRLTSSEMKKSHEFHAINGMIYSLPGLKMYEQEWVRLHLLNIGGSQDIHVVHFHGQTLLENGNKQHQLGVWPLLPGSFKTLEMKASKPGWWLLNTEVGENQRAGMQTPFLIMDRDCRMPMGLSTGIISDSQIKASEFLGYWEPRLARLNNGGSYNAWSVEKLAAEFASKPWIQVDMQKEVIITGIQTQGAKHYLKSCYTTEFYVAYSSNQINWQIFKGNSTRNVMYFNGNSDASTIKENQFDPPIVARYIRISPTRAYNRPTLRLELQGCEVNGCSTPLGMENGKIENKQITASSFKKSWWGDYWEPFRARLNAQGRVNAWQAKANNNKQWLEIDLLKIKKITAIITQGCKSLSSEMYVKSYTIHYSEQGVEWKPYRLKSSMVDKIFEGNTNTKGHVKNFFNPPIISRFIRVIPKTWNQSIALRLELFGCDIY
# test-details: SPR; three runs: 6.222, 5.408, 5.115; text ~6 nM; HBS 2 mM CaCl2, 25 C
# measurement-conditions: tags: modified FVa, protease-stabilised form described previously; label: 5'-biotin
observation-type: pKd
# reply with the number alone; pKd is -log10 of concentration in mol/L

What value of pKd has been recorded for this entry: T18.3 biotinylated (ssRNA, 2'-F C and U; 5' biotin and PEG11 spacer) RNA: GGACUUGGAUAACCUCACCGCAAUGGCGGCUUGUCAGACGACUCGCUGAGGAUCCGAG
8.25

Where these numbers come from: patent US20170355992
